Measurement Notes: Inhibition of Mycobacterium tuberculosis glutamine synthetase 1 assessed as reduction in ADP formation incubated 1 hr in presence of glutamate, ammonium chloride and ATP
// pIC50 lookup, one value per entry
For clarity, pIC50 is expressed as the negative log10 of concentration in mol/L.

Here is how some compounds turned out for pIC50.
{"columns": ["Compound", "pIC50"],
 "data": [
  ["CN(C)CCCn1c2c(n3ccnc3c1=O)Cc1c(-c3ccccn3)cccc1-2", 6.07],
  ["C=CCCn1c2c(n3ccnc3c1=O)Cc1c(-c3cccnc3)cccc1-2", 8.15],
  ["C=CCn1c2c(n3ccnc3c1=O)Cc1c(-c3ccccc3)cccc1-2", 6.48],
  ["CC(=O)Nc1cccc2c1Cc1c-2[nH]c(=O)c2nccn12", 5.68],
  ["O=c1[nH]c2c(n3ccnc13)Cc1c(-c3ccccc3)cccc1-2", 7.51]
]}

Q: Would you kindly share the measured pIC50 for CN(C)CCCn1c2c(n3ccnc3c1=O)Cc1c(-c3cccnc3)cccc1-2 ?
Ans: 6.88

Q: Would you kindly share the measured pIC50 for O=c1[nH]c2c(n3ccnc13)Cc1c-2cccc1-c1cccc2ncccc12 ?
Ans: 5.15

Q: Would you kindly share the measured pIC50 for COc1cccc(-c2cccc3c2Cc2c-3n(CCCN(C)C)c(=O)c3nccn23)c1 ?
Ans: 7.08

Q: Would you kindly share the measured pIC50 for O=c1[nH]c2c(n3ccnc13)Cc1c(-c3cccnc3)cccc1-2 ?
Ans: 7.51

Q: Would you kindly share the measured pIC50 for COCCn1c2c(n3ccnc3c1=O)Cc1c(-c3ccccc3)cccc1-2 ?
Ans: 6.66

Provenance of the data: ChEMBL document CHEMBL3396985
